Assay: inhibitors of Cryptococcus chitosan production, flow cytometry, Cibacron Brilliant Red staining (AID 1347148);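 also: compound exposure lasted three days at 37 degrees C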
Details: Cryptococcus neoformans chitosan, active compounds read low; at 10 µM unless noted
The source made the active and inactive calls. No rule for the calls is given here.
Assignment: determine reported fold fluorescence for the given compounds.

Consider the following illustrative entries.
>>> result("CC1=C2C[C@@H]3[C@H](CC=C4C[C@H](O)CC[C@]43C)[C@H]2CC[C@@]12O[C@H]1C[C@@H](C)CN[C@@H]1[C@@H]2C")
"14.9 [at 121.5 µM] (inactive)"
>>> result("CC(C)(c1ccc(OCC2CO2)cc1)c1ccc(OCC2CO2)cc1 (stereo not given)")
"8.02 [at 146.9 µM] (inactive)"
>>> result("CC1(C)C(C=C(Cl)Cl)C1C(=O)OC(C#N)c1cccc(Oc2ccccc2)c1 (stereo not given)")
"4.81 [at 120.1 µM] (inactive)"
>>> result("N[C@H]1CCc2cc(O)c(O)cc2C1")
"4.25 [at 279 µM] (inactive)"

query: // returns reported fold fluorescence for input O[C@@H]1[C@@H]2[C@@H](O)CCCN2C[C@@H]1O
result: 5.36 [at 288.7 µM] (inactive)

---

Tested on: Aerobactin synthetase IucA (Klebsiella pneumoniae, hypervirulent)
Test: IucA enzyme inhibition, biochemical, LOPAC library, absorbance readout (AID 1346212);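 also: 100% = no compound wells and 0% = no enzyme wells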
Conditions: IucA enzyme assay, absorbance (OD) readout; active compounds read low; concentration not given here
valueKind: remaining activity (%)
Numbers only, in %.

For orientation, consider the following solved cases.
>>> recordednumber("CCN(Cc1ccncc1)C(=O)C(CO)c1ccccc1 (configuration not stated)")
98.9
>>> recordednumber("CCCN(CCC)[C@@H]1CCc2c(F)ccc(O)c2C1")
110
>>> recordednumber("COc1ccc([C@@H]2Sc3ccccc3N(CCN(C)C)C(=O)[C@@H]2OC(C)=O)cc1")
109
>>> recordednumber("c1ccc([C@H]2CN3CCSC3=N2)cc1")
112
>>> recordednumber("O=C(NCCNCC(O)COc1ccc(O)cc1)N1CCOCC1 (configuration not stated)")
118
>>> recordednumber("CN1[C@@H]2CC(OC(=O)[C@H](CO)c3ccccc3)C[C@H]1[C@@H]1O[C@@H]12 (some centres not stated)")
105
>>> recordednumber("Cc1cc(C(C)(C)C)cc(C)c1CC1=NCCN1")
115
>>> recordednumber("CC(=O)N[C@@H](CS)C(=O)O")
108
>>> recordednumber("COc1cc2c(cc1C(F)(F)F)N(C(=O)Nc1cc(F)cc(-c3cccnc3)c1)CC2")
120
>>> recordednumber("Nc1ncnc2c1ncn2C1CCCO1 (configuration not stated)")
75.8

For every record below, what is its remaining activity?
1. COc1ccc(CCNC[C@@H](O)c2ccc(O)cc2)cc1OC
2. NC(N)=Nc1ccc2[nH]c3c(c2c1)C[C@@]1(O)[C@H]2Cc4ccc(O)c5c4[C@@]1(CCN2CC1CC1)[C@H]3O5
3. O=C(c1ccc(OCCCc2cnc[nH]2)cc1)C1CC1
4. N#CC(C#N)=Cc1ccc(O)c(O)c1

result:
1: 91.4; 2: 86.3; 3: 100; 4: 120

---

System: F380Y/beta2Delta
Assay: modulators of BK channel variants, profiling panel, selectivity assay, cell-based, U2OS BacMam, thallium flux, beta subunits (AID 1259406);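 also: initial slope of Thallos dye fluorescence rise after thallium is added; log ratio against the mean of 0.3% DMSO vehicle wells on the same plate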
Conditions: at 30 µM
valueKind: log fold change Tl+ flux
Answers are plain numbers.

Go through the list and state log fold change Tl+ flux for each entry.
1. C[N+]1(CCC(C(N)=O)(c2ccccc2)c2ccccc2)CCCCC1
2. CCN(CC)CCOC(=O)C(O)(c1ccccc1)c1ccccc1
3. C[C@]12CC[C@H]3[C@@H](CCC4=CC(=O)CC[C@@H]43)[C@@H]1CC[C@@H]2O

result:
1. 0.00809
2. 0.0439
3. 0.0141

Please give log fold change Tl+ flux for each item listed below.
1. CC12CCC(=O)C=C1CCC1C2CCC2(C)C(O)CCC12 (stereo not given)
2. NCCc1ccccn1
3. Clc1ccc(COC(Cn2ccnc2)c2ccc(Cl)cc2Cl)cc1 (stereo not given)
4. Cc1ccc(-c2nc3ccc(C)cn3c2CC(=O)N(C)C)cc1
5. CC(O)(CS(=O)(=O)c1ccc(F)cc1)C(=O)Nc1ccc(C#N)c(C(F)(F)F)c1 (stereo not given)

result:
[0.032, -0.0265, -0.182, 0.00568, -0.0358]

---

Record form. Attribute: z-score. Fill in for each entry.
Test: viability rescue of complex I mutant cybrids, primary screen, cell-based, galactose medium, ATP luminescence (AID 1645843);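 also: positive z means more ATP and so rescue of galactose-driven cybrid death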
Details: complex I mutant cybrid cells, 72 h, active compounds read high
Numbers only.

Some entries whose results are on file:
>>> recordednumber("CN1C2CCC1CC(OC(c1ccccc1)c1ccc(Cl)cc1)C2 (stereo unspecified)")
-1.1
>>> recordednumber("CN1CC[C@@]2(C)c3cc(OC(=O)Nc4ccccc4)ccc3N(C)[C@@H]12")
-0.985
>>> recordednumber("C[C@](O)(CS(=O)(=O)c1ccc(F)cc1)C(=O)Nc1ccc(C#N)c(C(F)(F)F)c1")
-0.71
>>> recordednumber("Oc1ccc2c3c1O[C@H]1c4[nH]c5ccccc5c4C[C@@]4(O)[C@@H](C2)N(CC2CC2)CC[C@]314")
-0.405
>>> recordednumber("CCNC(=O)[C@H]1O[C@@H](n2cnc3c(N)ncnc32)C(O)[C@H]1O (stereo partly specified)")
0.625
>>> recordednumber("CC(=O)OCC1=C(C(=O)[O-])N2C(=O)[C@@H](NC(=O)CCC[C@@H](N)C(=O)[O-])[C@H]2SC1.[Zn+2]")
-0.275
>>> recordednumber("CN1CCC(N(C)CCC2CCOCC2)CC1")
0.38
>>> recordednumber("CC[N+](CC)(CC)CC")
0.685

Report z-score for each item below.
1. CCC(C(N)=O)N1CCCC1=O (stereo unspecified)
2. NC=Nc1ccc2[nH]c3c(c2c1)C[C@@]1(O)C2Cc4ccc(O)c5c4[C@@]1(CCN2CC1CC1)[C@H]3O5
3. Cn1c2c(c3ccccc31)CCNCC2

result:
1. 0.645
2. -0.38
3. -0.23

---

Assign activity remaining to each entry below.
Test system: Aerobactin synthetase IucA (Klebsiella pneumoniae hvKP1)
Assay: Biochemical IucA enzyme inhibition primary screen of the Spectrum library (AID 1346200);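 also: 100% = wells without compound and 0% = wells lacking enzyme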
Details: malachite green pyrophosphate, A620, at 8 µM, active compounds read low
Give bare numbers, in %.

Completed entries (count: 5):
>>> recordednumber("CC(=O)O[C@H]1CC[C@@]2(C)C(CC[C@]3(C)C2CC=C2C4CC(C)(C)CC[C@]4(C)CC[C@]23C)C1(C)C (stereo partly specified)")
102
>>> recordednumber("OCCN1C[C@@H](O)[C@@H](O)C(O)C1CO (stereo partly specified)")
114
>>> recordednumber("OC[C@H]1O[C@@H](O[C@@H]2[C@@H](CO)O[C@](O)(CO)[C@H]2O)[C@H](O)[C@@H](O)[C@H]1O")
121
>>> recordednumber("C#C[C@]1(OC(C)=O)CCC2C3CCC4=CC(=O)CC[C@@H]4C3CC[C@@]21C (stereo partly specified)")
93
>>> recordednumber("NC(COCc1ccccc1)C(=O)O (stereo unspecified)")
105

Dear colleague, could you please provide activity remaining for the molecules listed below?
1. CC1=C(C/C=C(\C)CCC[C@H](C)CCC[C@H](C)CCCC(C)C)C(=O)c2ccccc2C1=O
2. COc1ccc(C(=O)/C=C/c2ccccc2)cc1
3. COc1ccc(-c2coc3cc(O)ccc3c2=O)c(O)c1O
4. CCOC(=O)[C@H](CCc1ccccc1)N[C@@H](C)C(=O)N1[C@H](C(=O)O)C[C@@H]2CCC[C@@H]21
5. COC1=CC(C)[C@@H]2C[C@H]3OC(=O)C[C@H]4C(C)=C(OC)C(=O)C([C@@]34C)[C@@]2(C)C1=O (stereo partly specified)

result:
114
106
114
103
97.8

---

Would you mind telling me the reported activity remaining of each entry?
Tested on: Aerobactin synthetase IucA (Klebsiella pneumoniae hvKP1)
Assay: Biochemical IucA enzyme inhibition primary screen of the Spectrum library (AID 1346200);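 also: 100% = wells without compound and 0% = wells lacking enzyme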
Details: malachite green pyrophosphate, A620, at 8 µM, active compounds read low
Non-standard residues stand in square brackets, D forms with d. Residues, ends and D or L forms follow the SMILES beside them. Orn = NCCC[CH](N)C(=O)O
Answers are plain numbers, in %.

>>> recordednumber("CCCN(CCC)S(=O)(=O)c1ccc(C(=O)O)cc1")
93.6

# map each molecule to its activity remaining
1. CCc1cc(C(N)=S)ccn1
2. Oc1c(Br)cc(Br)c2cccnc12
3. Cc1cc(O)ccc1Cl
4. CCC(C)C(=O)O[C@H]1[C@H](O)C2C(CN3CC(C)CCC3[C@@]2(C)O)C2C[C@]34O[C@]5(O)C(OC(=O)C(C)(O)C(C)O)CC[C@@]3(C)C5C(OC(C)=O)[C@@H](OC(C)=O)C4[C@@]21O (some centres not stated)

result:
105
113
115
107

// for each molecule below, give its activity remaining
1. CO/N=C(/C(=O)N[C@@H]1C(=O)N2C(C(=O)O)=C(COC(C)=O)CS[C@H]12)c1csc(N)n1
2. CN(C)c1ccc(C(=C2C=CC(=[N+](C)C)C=C2)c2ccc(N(C)C)cc2)cc1
3. C=C1CC[C@H](O)C/C1=C/C=C1\CCC[C@]2(C)C([C@H](C)/C=C/[C@H](C)C(C)C)CC[C@@H]12 (some centres not stated)
4. O=c1c(O)c(-c2ccc(O)cc2O)oc2cc(O)cc(O)c12
5. N[C@@H](C(=O)O)[C@@H](O)[C@H](O)[C@H](O)CO
6. COC(=O)[C@H]1[C@H]2C[C@@H]3c4[nH]c5cc(OC)ccc5c4CCN3C[C@H]2C[C@@H](OC(=O)c2cc(OC)c(OC)c(OC)c2)[C@@H]1OC
7. CCCCCCCCCCCCCCCCOP(=O)([O-])OCC[N+](C)(C)C
8. C=C(C)[C@H]1CC=C(C(=O)O)CC1

result:
[117, 118, 107, 96.8, 120, 109, 128, 120]

Below are 3 molecules. Give each one its activity remaining.
1. C[C@H](CC(=O)C(O)C(C)(C)O)[C@H]1C(=O)C[C@@]2(C)C3=CCC4C(C)(C)[C@@H](O[C@@H]5OC[C@@H](O)[C@H](O)[C@H]5O)CC[C@@]45C[C@@]35[C@@H](O)C[C@]12C (some centres not stated)
2. COc1ccc2c(c1)CCC1C2CC[C@@]2(C)C1CC[C@@H]2O (some centres not stated)
3. CC(C)CC1NC(=O)C(CCCN)NC(=O)C(C(C)C)NC(=O)C(Cc2ccc(O)cc2)NC(=O)C(CCC(=O)O)NC(=O)C(CC(=O)O)NC(=O)C(Cc2ccccc2)NC(=O)C(Cc2ccccc2)NC(=O)C2CCCN2C(=O)C(Cc2ccccc2)NC1=O (configuration not stated) (cyclo(DEYV[Orn]LFPFF); configuration not given here)

result:
1: 109; 2: 111; 3: 113

query: Recorded activity remaining for CC[C@H](/C=C/C(C)C1CCC2C3CCC4=CC(=O)CC[C@]4(C)C3CC[C@]12C)C(C)C (some centres not stated) , please?
result: 101
